potency estimated from few doses values by entry
test system: MAP2K2; design: species or system human, MV4-11 + K-562 + COLO205 + SK-N-BE2 + OVCAR-8; conditions: read-out: apparent Kd; compound concentrations:100 nM and 1000 nM (sheet 'Samples'); n = 1
State just the number; it will be interpreted in µM.

Sample answers from the record:
CC(C)c1ccc(Nc2nccc(-c3cnn4ncccc34)n2)cc1 [GW805758X]    2.02
Cc1cc(O)cc(C)c1/C=C/c1cncc(C(N)=O)c1    0.179
COc1ccccc1-c1cc(/C=C2\C(=O)Nc3ncc(Br)cc32)cc(Br)c1O [GW442130X]    1.58
Cc1ccccc1-c1cc(-c2c[nH]nc2-c2ccccn2)ccn1 [GW680061X]    2.25
CS(=O)(=O)Cc1ccc(Nc2nccc(-c3c(-c4cccc(NC(=O)C5CCCCC5)c4)nn4ncccc34)n2)cc1 [GSK350559A]    1.55

Qu. Enter recorded potency estimated from few doses with MAP2K2 for "Fc1ccc(-c2ncn(C3CCNCC3)c2-c2ccnc(Oc3ccc4c(c3)OCO4)n2)cc1" here.
Ans. 1.56

Qu. Enter recorded potency estimated from few doses with MAP2K2 for "CNCc1ccc(-c2cc(-c3nc(-c4ccc(S(=O)(=O)C(C)C)cc4)cnc3N)on2)cc1" here.
Ans. 1.7

Qu. Enter recorded potency estimated from few doses with MAP2K2 for C=CC(=O)Nc1cc(-c2nn(C3CCC(N4CCN(C(C)=O)CC4)CC3)c3ncnc(N)c23)ccc1Oc1ccccc1 (stereo not shown) here.
Ans. 1.55

Qu. Enter recorded potency estimated from few doses with MAP2K2 for "CN1CCC(n2cnc(-c3ccc(F)cc3)c2-c2ccnc(N)n2)CC1" here.
Ans. 0.185

Qu. Enter recorded potency estimated from few doses with MAP2K2 for CC(C(=O)NC1CCN(c2ccnc(Nc3ccc(F)cc3)n2)C1)c1ccc(Cl)cc1 (stereo not shown) [GSK1379713A] here.
Ans. 1.46

Qu. Enter recorded potency estimated from few doses with MAP2K2 for Nc1nc(-c2ccc3c(N)n[nH]c3c2)cc(N2CCCC(NC(=O)c3ccccc3)C2)n1 (stereo not shown) [GSK2286775B] here.
Ans. 1.56

Qu. Enter recorded potency estimated from few doses with MAP2K2 for Cc1c(Cn2c(C)nn3c(=O)cc(N4CCOC(C)C4)nc23)cccc1C(F)(F)F (stereo not shown) [GSK2344444A] here.
Ans. 1.81

Qu. Enter recorded potency estimated from few doses with MAP2K2 for "CCc1ccc(Oc2nccc(-c3c(-c4ccc(F)cc4)ncn3C3CCNCC3)n2)cc1" here.
Ans. 2.28
